systemTested: Rac-1 (Homo sapiens, UniProt P63000)
assay: MicroScale Thermophoresis (MST) GTP affinity
testConditions: read-out: MST GTP affinity for binding domain
measurementLabel: pKd
Conceptually, pKd converts a concentration in mol/L into minus its log10.

Ask | Tell me the measured pKd of Nc1nc2c(ncn2[C@@H]2O[C@H](COP(=O)(O)OP(=O)(O)OP(=O)(O)O)[C@@H](O)[C@H]2O)c(=O)[nH]1 , please.
Reply | 6.78

---

systemTested: KRas Q61H mutant (Homo sapiens, UniProt P01116, Q61H)
Construct: made in house
assay: Ras GTP binding domain inhibition assay (labeled-GTP competition, cell-free)
testConditions: at 20 μM, without SOS; read-out: KRas Q61H mutant: % inh.
Kindly supply the reported inhibition at 20 µM values for the records listed here.

Ask | Record request: inhibition at 20 µM value, item COCCn1ccnc1-c1nc(N[C@@H]2CC[C@H](OC)C2)c2c(-c3ccccc3)c(-c3ccn(C)n3)sc2n1 (racemic) [Compound 6]
Reply | 76 to 100%

Ask | Can you look up the measured inhibition at 20 µM of COCC1CCN(c2nc(-c3nccn3C)nc3sc(-c4ccn(C(C)C)n4)c(C(F)(F)F)c23)C1 (racemic) [Compound 74] for me?
Reply | 51 to 75%

Ask | Value lookup for inhibition at 20 µM; key = CO[C@H]1C[C@H](Nc2nc(-c3nccn3C)nc3sc(-c4ccn(C(C)C)n4)c(C)c23)C[C@H]1OC [Compound 43]
Reply | 1 to 25%

Ask | Quick one: inhibition at 20 µM for CO[C@H]1C[C@@H](Nc2nc(-c3nccn3C)nc3sc(-c4ccn(C(C)C)n4)c(C)c23)C[C@H]1OC [Compound 42] ?
Reply | 76 to 100%

Ask | Item CO[C@H]1CC[C@@H](Nc2nc(-c3nccn3C)nc3sc(-c4ccn(C(C)C)n4)c(C)c23)C1 [Compound 32] has what recorded inhibition at 20 µM?
Reply | 51 to 75%

Ask | Given the compound COCC1COCCN1c1nc(-c2nccn2C)nc2sc(-c3ccn(C(C)C)n3)c(C)c12 (racemic) [Compound 41] , what is its reported inhibition at 20 µM?
Reply | 51 to 75%

Ask | // inhibition at 20 µM lookup, key: COc1ccc2cnc(-c3nc(O)c4scc(-c5ccccn5)c4n3)n2c1 [Compound 86]
Reply | 26 to 50%

Ask | Query: inhibition at 20 µM; subject: Oc1nc(-c2nccn2CCOCc2ccccc2)nc2c(-c3ccccn3)csc12 [Compound 83]
Reply | 26 to 50%

Ask | Any idea what its inhibition at 20 µM is? The compound is Cc1sc2c(O)nc(-c3ccccn3)nc2c1-c1ccccn1 [Compound 26]
Reply | 76 to 100%

Ask | Please look up its inhibition at 20 µM: CO[C@H]1CN(c2nc(-c3nccn3C)nc3sc(-c4ccn(C(C)C)n4)c(C)c23)C[C@H]1OC [Compound 39]
Reply | 51 to 75%

Ask | Param item = COC1CCN(c2nc(-c3nccn3C)nc3sc(-c4ccn(C(C)C)n4)c(C)c23)C1 (racemic) [Compound 34] ; retrieve measured inhibition at 20 µM.
Reply | 76 to 100%

Ask | Dear colleague, I am looking for the recorded inhibition at 20 µM of the following compound: COCCn1ccnc1-c1nc(N[C@H]2C[C@@H](OC)C2)c2ccsc2n1 [Compound 9]
Reply | 76 to 100%

Ask | Field request: inhibition at 20 µM | item: CO[C@H]1C[C@@H](Nc2nc(-c3nccn3C)nc3sc(-c4ccn(C(C)C)n4)c(C)c23)C1 [Compound 96]
Reply | 0%

Ask | # get_value(readout='inhibition at 20 µM', item= CC(C)NC(=O)c1nc(O)c2scc(-c3ccccn3)c2n1 [Compound 20] )
Reply | 26 to 50%

Ask | Sample Cc1c(-c2ccn(C(C)C)n2)sc2nc(-c3ccccn3)nc(N3CCC(COC(C)C)C3)c12 (stereo not shown) [Compound 72] — what was its inhibition at 20 µM?
Reply | 0%

Ask | Could you share which inhibition at 20 µM value was measured for CO[C@@H]1CCCN(c2nc(-c3nccn3C)nc3sc(-c4ccn(C(C)C)n4)c(C)c23)C1 [Compound 50] ?
Reply | 26 to 50%
